tgt: FYN (human)
test name: KINOMEscan competition binding
recorded conditions: compound 10.0 µM
observation type: kinase still bound, per cent of control (%)

molecule=CNC(=O)Nc1ccc(-c2nc(N3CC4CCC(C3)O4)c3cnn(C4CCC5(CC4)OCCO5)c3n2)cc1 observation_type="kinase still bound, per cent of control" observed_result=70
molecule=O=c1[nH]c2ccccc2n1C1CCN(Cc2ccc(-c3nc4cc5[nH]cnc5cc4nc3-c3ccccc3)cc2)CC1 observation_type="kinase still bound, per cent of control" observed_result=100
molecule="CC1=C(C(=O)Nc2cc3cn[nH]c3cc2F)C(c2ccc(C(F)(F)F)cc2)CC(=O)N1 (centres undefined)" observation_type="kinase still bound, per cent of control" observed_result=82
molecule=CCOc1cc(N2CCC(O)CC2)ccc1Nc1ncc2c(n1)N(C)c1ccccc1C(=O)N2C observation_type="kinase still bound, per cent of control" observed_result=100
